# study.system: Oxysterols receptor LXR-beta (Homo sapiens, UniProt P55055);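 further: HEK293 cells with Gal4-LXR fusion and GAL4-driven luciferase reporter; potency for activation of Gal4-LXR reporter so compounds are agonists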;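 further: agonist activity at LXR measured by a cell-based luminescence readout across a dose range, run as a counterscreen for daf-12 agonists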
# Sequence (P55055 whole entry, the tested form may be a part): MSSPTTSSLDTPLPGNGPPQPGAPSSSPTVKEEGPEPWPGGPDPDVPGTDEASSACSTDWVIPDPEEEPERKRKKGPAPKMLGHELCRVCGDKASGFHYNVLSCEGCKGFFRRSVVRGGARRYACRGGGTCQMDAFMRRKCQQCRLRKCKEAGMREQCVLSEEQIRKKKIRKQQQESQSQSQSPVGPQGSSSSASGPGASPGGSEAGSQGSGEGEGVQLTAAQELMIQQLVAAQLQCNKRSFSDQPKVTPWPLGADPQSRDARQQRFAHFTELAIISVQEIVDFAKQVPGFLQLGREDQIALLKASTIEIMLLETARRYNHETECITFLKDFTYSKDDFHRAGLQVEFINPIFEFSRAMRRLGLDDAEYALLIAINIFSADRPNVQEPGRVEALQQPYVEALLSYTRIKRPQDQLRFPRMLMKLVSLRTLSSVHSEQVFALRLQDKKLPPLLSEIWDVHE
# Type: functional, cell-based
Active and inactive are the calls of the source.
experimental.endpoint: EC50

Cc1ccc(-n2ncc3ccccc3c2=O)cc1Cl; > 67.6 µM (inactive)
Oc1ccccc1-c1cc(-c2ccc3c(c2)OCCO3)[nH]n1; > 67.6 µM (inactive)
O=C(CCCc1ccccc1)NC12CC3CC(CC(C3)C1)C2; > 67.5 µM (inactive)
CN(C)c1ccc(N=Nc2nccs2)cc1; > 67.4 µM (inactive)
Cc1ccc(N=Nc2ccc(O)cc2)c(Br)c1; > 67.5 µM (inactive)

----------
# study.system: UniProtKB Q8VNN2
# Sequence (Q8VNN2 whole entry): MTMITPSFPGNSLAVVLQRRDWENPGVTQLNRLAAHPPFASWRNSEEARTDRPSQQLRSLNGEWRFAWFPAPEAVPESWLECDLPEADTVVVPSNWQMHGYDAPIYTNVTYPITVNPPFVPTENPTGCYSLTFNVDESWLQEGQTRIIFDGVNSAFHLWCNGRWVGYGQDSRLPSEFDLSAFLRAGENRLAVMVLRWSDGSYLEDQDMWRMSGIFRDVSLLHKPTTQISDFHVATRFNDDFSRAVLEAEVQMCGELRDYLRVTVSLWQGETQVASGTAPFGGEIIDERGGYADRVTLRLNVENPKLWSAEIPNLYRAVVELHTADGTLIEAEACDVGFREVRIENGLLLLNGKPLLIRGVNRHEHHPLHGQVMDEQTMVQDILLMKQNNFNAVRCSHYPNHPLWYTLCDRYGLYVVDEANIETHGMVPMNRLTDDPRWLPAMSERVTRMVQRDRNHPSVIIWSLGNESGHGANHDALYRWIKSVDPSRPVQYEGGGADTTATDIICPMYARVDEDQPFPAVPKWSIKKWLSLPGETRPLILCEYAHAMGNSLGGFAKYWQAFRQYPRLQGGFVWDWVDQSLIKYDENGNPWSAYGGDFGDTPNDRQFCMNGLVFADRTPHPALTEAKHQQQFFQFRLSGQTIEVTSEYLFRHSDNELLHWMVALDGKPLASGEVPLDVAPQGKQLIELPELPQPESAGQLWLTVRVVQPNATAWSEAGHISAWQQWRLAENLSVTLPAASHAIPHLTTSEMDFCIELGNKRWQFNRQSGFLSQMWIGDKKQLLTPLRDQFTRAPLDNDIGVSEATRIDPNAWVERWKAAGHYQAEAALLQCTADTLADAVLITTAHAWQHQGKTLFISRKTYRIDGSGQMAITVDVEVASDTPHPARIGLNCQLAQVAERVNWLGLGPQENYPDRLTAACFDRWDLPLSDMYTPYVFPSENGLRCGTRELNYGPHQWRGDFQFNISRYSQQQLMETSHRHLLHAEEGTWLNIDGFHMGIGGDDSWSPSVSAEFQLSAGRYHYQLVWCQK
# measurement.notes: beta-galactosidase enzyme inhibitors and activators, dose response, artefact control for CCR6 antagonist project, biochemical, E. coli enzyme, set 3 (AID 504712)
# Type: functional
Activity calls are given as the source filed them.
experimental.endpoint: IC50

CC(C)(C)c1ccc2c(c1)OC(C(=O)N/N=C\c1ccccn1)CO2 (centres undefined); > 66.6 µM (inactive)
COc1ccc(N2C(=O)CC(Sc3nnc(-c4ccccc4)o3)C2=O)cc1 (centres undefined); > 66.6 µM (inactive)
CCOc1cccc(C(=O)NC(=S)Nc2cccc(C)c2)c1; > 66.6 µM (inactive)
Cc1ccc(S(=O)(=O)/N=C2\C=C(Nc3cccc(C(=O)O)c3)C(=O)c3ccccc32)c(C)c1; 43.5 µM (inactive)

----------
# study.system: Sentrin-specific protease 8 (Homo sapiens, UniProt Q96LD8);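 further: luminescence read-out of SENP8 inhibition, dose-response confirmation following an ultra-high-throughput screen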
# Sequence (Q96LD8 whole entry): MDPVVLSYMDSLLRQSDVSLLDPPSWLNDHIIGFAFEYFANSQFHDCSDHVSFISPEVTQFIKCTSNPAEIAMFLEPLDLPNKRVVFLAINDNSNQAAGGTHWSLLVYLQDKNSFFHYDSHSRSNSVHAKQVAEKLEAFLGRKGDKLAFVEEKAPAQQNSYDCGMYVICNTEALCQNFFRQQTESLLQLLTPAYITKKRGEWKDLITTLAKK
# Format: functional
The source made the active and inactive calls.
experimental.endpoint: IC50

Nc1ccc(N2CCCCC2)c2nonc12; 10.2 µM (active)
O=C(O)c1ccc(-c2ccc(OS(=O)(=O)c3ccccc3F)cc2)cc1; 56.4 µM (active)
Cc1c(C(=O)O)cccc1-c1ccc(/C=C2/NC(=O)N(c3ccccc3)C2=O)o1; 45 µM (active)
Cc1ccc(S(=O)(=O)/N=C2\C=C(Nc3cccc(C(=O)O)c3)C(=O)c3ccccc32)c(C)c1; 1.78 µM (active)

----------
# IC50 per entry for UniProtKB P04406
# Sequence (P04406 whole entry): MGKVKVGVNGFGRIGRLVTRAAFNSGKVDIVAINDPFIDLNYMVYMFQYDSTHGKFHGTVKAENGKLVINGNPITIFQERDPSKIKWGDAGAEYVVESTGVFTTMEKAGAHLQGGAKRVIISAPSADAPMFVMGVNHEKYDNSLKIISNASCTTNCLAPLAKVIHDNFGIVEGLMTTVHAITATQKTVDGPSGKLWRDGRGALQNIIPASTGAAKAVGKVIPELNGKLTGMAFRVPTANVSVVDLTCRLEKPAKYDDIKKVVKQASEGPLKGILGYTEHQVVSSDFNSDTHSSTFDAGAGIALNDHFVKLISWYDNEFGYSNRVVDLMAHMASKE
experimental.endpoint: IC50

O=C1C(Cl)=C(N2CCOCC2)C(=O)N1c1c(Cl)cccc1Cl; > 10 µM (inconclusive)
Cc1ccc(SCC(=O)Nc2nnc[nH]2)cc1; > 10 µM (inconclusive)
O=C(O)c1cc(-c2cc(F)c(Cl)cc2Cl)n[nH]1; > 100 µM (not active)
CCn1c(SCC(=O)O)nc2sc3c(c2c1=O)CCCC3; > 100 µM (not active)
O=C(O)CSCC(=O)Nc1ccc(C2CCCCC2)cc1; > 100 µM (not active)
COc1ccc(-c2cc(C(=O)O)[nH]n2)c(OC)c1; > 100 µM (not active)

----------
# study.system: Peroxisome proliferator-activated receptor gamma/Nuclear receptor coactivator 2 (Homo sapiens)
# Sequence (P37231 whole entry): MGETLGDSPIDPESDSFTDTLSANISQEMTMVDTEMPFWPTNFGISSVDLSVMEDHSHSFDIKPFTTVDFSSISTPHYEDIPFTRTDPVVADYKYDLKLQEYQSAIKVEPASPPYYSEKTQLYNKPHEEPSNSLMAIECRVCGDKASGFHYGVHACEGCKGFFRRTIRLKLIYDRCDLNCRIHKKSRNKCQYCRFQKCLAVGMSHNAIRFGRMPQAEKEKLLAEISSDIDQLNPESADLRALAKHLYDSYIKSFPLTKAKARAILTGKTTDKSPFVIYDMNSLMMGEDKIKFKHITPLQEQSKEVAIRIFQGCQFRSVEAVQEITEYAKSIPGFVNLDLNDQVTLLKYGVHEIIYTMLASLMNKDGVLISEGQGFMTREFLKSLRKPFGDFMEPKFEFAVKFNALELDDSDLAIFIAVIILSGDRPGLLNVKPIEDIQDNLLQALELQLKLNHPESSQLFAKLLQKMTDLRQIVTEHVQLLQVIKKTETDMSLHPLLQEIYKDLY
# Sequence (Q15596 whole entry, further chain): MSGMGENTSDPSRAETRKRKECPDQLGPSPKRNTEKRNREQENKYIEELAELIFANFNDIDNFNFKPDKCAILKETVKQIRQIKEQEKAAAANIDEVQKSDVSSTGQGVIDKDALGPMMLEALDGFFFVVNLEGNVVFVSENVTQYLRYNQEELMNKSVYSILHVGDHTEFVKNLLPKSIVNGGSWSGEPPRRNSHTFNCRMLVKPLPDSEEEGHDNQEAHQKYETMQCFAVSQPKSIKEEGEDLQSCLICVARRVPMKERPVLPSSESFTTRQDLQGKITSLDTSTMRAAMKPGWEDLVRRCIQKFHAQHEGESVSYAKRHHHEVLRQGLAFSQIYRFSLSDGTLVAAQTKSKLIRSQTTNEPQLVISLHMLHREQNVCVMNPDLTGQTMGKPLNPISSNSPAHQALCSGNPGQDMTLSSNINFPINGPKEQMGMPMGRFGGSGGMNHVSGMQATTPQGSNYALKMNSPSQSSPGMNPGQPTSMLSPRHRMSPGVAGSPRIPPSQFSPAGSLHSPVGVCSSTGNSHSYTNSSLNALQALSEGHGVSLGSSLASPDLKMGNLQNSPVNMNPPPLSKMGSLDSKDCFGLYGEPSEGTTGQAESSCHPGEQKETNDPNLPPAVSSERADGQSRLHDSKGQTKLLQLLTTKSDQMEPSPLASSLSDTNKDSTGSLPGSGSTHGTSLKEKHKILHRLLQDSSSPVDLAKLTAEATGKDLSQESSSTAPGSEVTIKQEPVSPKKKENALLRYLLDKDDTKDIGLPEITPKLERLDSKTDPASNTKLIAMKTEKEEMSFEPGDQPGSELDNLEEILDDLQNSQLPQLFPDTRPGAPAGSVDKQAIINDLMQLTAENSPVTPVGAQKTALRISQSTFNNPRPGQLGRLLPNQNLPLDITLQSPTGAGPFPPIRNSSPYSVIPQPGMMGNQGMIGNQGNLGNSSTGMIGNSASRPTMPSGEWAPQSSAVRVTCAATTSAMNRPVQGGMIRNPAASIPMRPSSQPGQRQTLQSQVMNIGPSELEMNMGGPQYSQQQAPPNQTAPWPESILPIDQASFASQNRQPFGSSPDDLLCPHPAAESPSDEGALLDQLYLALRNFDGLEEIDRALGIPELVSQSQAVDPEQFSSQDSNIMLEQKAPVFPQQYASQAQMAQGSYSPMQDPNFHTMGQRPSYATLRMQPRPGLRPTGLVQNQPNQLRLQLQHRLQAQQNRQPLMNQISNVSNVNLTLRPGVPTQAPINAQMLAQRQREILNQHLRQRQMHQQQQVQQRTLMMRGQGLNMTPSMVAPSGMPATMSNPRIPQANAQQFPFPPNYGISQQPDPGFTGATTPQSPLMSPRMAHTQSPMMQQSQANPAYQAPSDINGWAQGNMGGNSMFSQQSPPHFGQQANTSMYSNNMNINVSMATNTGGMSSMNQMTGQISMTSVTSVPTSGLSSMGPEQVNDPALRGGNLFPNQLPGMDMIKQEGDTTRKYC
# measurement.notes: TR-FRET dose response biochemical High Throughput Screening assay for agonists of the steroid receptor coactivator 2 (SRC-2) recruitment by the peroxisome proliferator-activated receptor gamma (PPAR gamma): non-selective agonists. [Related pubchem assays: 1297, 1032 ]
# Type: functional
Calls of active or inactive are those of the source.
EC50 listing for selected molecules.
experimental.endpoint: EC50

O=C(COc1ccc2ccccc2c1)NCCNC(=O)COc1ccc2ccccc2c1; 8.67 µM (active)
CN(CCCNC(=O)CSc1cc(=O)n(C)c2cc(Cl)ccc12)Cc1ccccc1; > 79.4 µM (not active)
CCCCN(CC)C(=O)CSc1cc(=O)n(C)c2ccccc12; > 79.4 µM (not active)
CSc1cnn(-c2ccccc2)c(=O)c1SC; 1.75 µM (active)
